# Lookup of reported Plant response rating, Oat, Wild keyed by entry
# System: oat, wild (wild oat, Avena fatua)
# test details: Test D controlled growth environment herbicide test, pre- and postemergence
# Format: in vivo
# details: Postemergence, 125 g ai/ha; visual rating on scale 0 (no effect) to 100 (complete control), 14 to 21 d
Output: the number by itself.

Below are worked cases with known answers.
                              sample_smiles  numeric_result
0  CC(=O)Oc1c(C)nn(C)c(=O)c1-c1c(C)sc2ccc(Cl)cc12             100
1    Cc1cc(C)c2ccccc2c1-c1c(O)c(C)nn(C)c1=O              85

# query: Plant response rating, Oat, Wild of entry Cc1nn(C)c(=O)c(-c2c(C)sc3ccc(Br)cc23)c1O
85

# query: Plant response rating, Oat, Wild of entry Cc1nn(C)c(=O)c(-c2cccc3ccccc23)c1O
85

###

# System: wild poinsettia (Euphorbia heterophylla)
# test details: Test E greenhouse herbicide test, pre- and postemergence
# Assay type: in vivo
# details: 62 g ai/ha, Postemergence; scale 0 to 100 (0 no effect, 100 complete control)
# Lookup of reported Plant response rating, Poinsettia, Wild keyed by entry
Output: the number by itself.

In [3]: df
Out[3]:
                              sample_smiles                                    system  numeric_result
0  Cc1ccc2ccccc2c1-c1c(OC(=O)OC(C)C)c(C)nn(C)c1=O  wild poinsettia (Euphorbia heterophylla)              40
1       Cn1nc(Br)c(O)c(-c2cccc3ccccc23)c1=O  wild poinsettia (Euphorbia heterophylla)              20
2  CCc1sc2c(C)cc(C)cc2c1-c1c(O)c(C)nn(C)c1=O  wild poinsettia (Euphorbia heterophylla)              10

As a next step, examine the compound that follows.
# query: Plant response rating, Poinsettia, Wild of entry CCCC(=O)Oc1c(C)nn(C)c(=O)c1-c1c(C)sc2ccc(C)cc12
25

###

# Tested on: crabgrass, large (large crabgrass, Digitaria sanguinalis)
# test details: Test C greenhouse herbicide test, pre- and postemergence
# Format: in vivo
# details: Postemergence, 31 g ai/ha; 0 to 100 scale (0 no effect, 100 complete control)
# Excerpt: […]
# Lookup of reported Crabgrass, Large plant response rating keyed by entry
Output: the number by itself.

Below are worked cases with known answers.
>>> df
                              sample_smiles  numeric_result
0      CCc1ccc2ccccc2c1-c1c(O)c(C)nn(C)c1=O              10
1  Cc1ccc2ccccc2c1-c1c(OC(=O)OC(C)C)c(C)nn(C)c1=O              10
2  Cc1cc(C)c2sc(C)c(-c3c(O)c(C)nn(C)c3=O)c2c1              10
3    CCc1oc2ccc(C)cc2c1-c1c(O)c(C)nn(C)c1=O              10
4    CCc1sc2ccc(C)cc2c1-c1c(O)c(C)nn(C)c1=O              20

Give Crabgrass, Large plant response rating (crabgrass, large (large crabgrass, Digitaria sanguinalis)) of the following molecule: Cc1nn(C)c(=O)c(-c2ccc(Br)c3ccccc23)c1O
5

Give Crabgrass, Large plant response rating (crabgrass, large (large crabgrass, Digitaria sanguinalis)) of the following molecule: Cc1cc(C)c2ccccc2c1-c1c(O)c(C)nn(C)c1=O
30
